# assayProcedure: Confirmation and Secondary Assays for Modulators of Hemoglobin Beta Chain Splicing at IVS2 654 and 705 loci
# conditionNotes: HeLa beta-globin IVS2-654 splicing GFP reporter, 48 h
Results filed as inconclusive are left out. Calls of active or inactive are those of the source. Calls come from the whole dose curve.
measuredQuantity: Potency

Potency reading for O=c1[nH]c(=O)n([C@@H]2O[C@H](CO)[C@@H](O)[C@H]2O)cc1F : 3980 nM (active)

Potency reading for S=C1NC=NC2N=CNC12 (stereo not given) : 1580 nM (active)

Potency reading for Nc1nc(=S)c2[nH]cnc2[nH]1 : 1120 nM (active)

Potency reading for OCC1OC(n2cnc3c(=S)nc[nH]c32)C(O)C1O (stereo not given) : 1780 nM (active)

Potency reading for CCn1c(C)nc([N+](=O)[O-])c1Sc1ncnc2nc[nH]c12 : 2000 nM (active)
